# assay.remarks: Inhibition of Ha-ras polymerase-chain reaction product
assay.metric: IC50

Need IC50 of COC(=O)CCOc1cc2c(cc1OC)C(=O)N1CCC[C@H]1C=N2 , thanks.
> 300 µM
